# MEASUREMENT_TARGET: SMYD3 (Homo sapiens (Human), UniProt Q9H7B4)
# Sequence (Q9H7B4 whole entry): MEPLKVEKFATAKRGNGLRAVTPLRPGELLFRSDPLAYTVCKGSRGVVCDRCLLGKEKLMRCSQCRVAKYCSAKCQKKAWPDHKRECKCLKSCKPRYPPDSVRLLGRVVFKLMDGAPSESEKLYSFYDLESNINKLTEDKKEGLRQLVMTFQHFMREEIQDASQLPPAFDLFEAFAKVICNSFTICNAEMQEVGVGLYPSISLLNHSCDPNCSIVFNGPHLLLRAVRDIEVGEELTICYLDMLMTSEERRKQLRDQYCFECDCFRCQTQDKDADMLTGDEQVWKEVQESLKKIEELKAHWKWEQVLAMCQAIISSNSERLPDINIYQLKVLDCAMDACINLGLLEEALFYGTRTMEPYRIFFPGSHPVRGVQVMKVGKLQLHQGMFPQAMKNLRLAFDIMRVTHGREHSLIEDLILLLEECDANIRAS
# EXPERIMENT_DESCRIPTION: SMYD3 biochemical assay (SPA, 3H-SAM methylation of MEKK2 protein substrate)
# ASSAY_CONDITIONS: Table 2A; read-out: SMYD3 Biochem IC50
Parameter pIC50: see the listing below.
The meaning of pIC50 here: minus log10 of the concentration in molar units.

// solved cases for pIC50 follow
- MOLECULE: "NC1CC2(C1)CN(S(=O)(=O)N1[C@@H]3CC[C@H]1C[C@@H](NC(=O)c1cc(C4CC4)on1)C3)C2"
  MEASUREMENT_TARGET: "SMYD3 (Homo sapiens (Human), UniProt Q9H7B4)"
  pIC50: 8.51
- MOLECULE: "COCCN1CCC(CS(=O)(=O)N2[C@@H]3CC[C@H]2C[C@@H](NC(=O)c2cc(C4CC4)on2)C3)CC1"
  MEASUREMENT_TARGET: "SMYD3 (Homo sapiens (Human), UniProt Q9H7B4)"
  pIC50: 8.41
- MOLECULE: "COCCNCCCS(=O)(=O)N1[C@@H]2CC[C@H]1C[C@@H](NC(=O)c1cc(C3CC3)on1)C2"
  MEASUREMENT_TARGET: "SMYD3 (Homo sapiens (Human), UniProt Q9H7B4)"
  pIC50: 7.79
- MOLECULE: "C[C@@H]1CN(S(=O)(=O)N2CCNCC2)[C@H](C)C[C@@H]1NC(=O)c1cc(C2CC2)on1"
  MEASUREMENT_TARGET: "SMYD3 (Homo sapiens (Human), UniProt Q9H7B4)"
  pIC50: 7.90
- MOLECULE: "C[C@H]1C[C@@H](NC(=O)c2cc(C3CC3)on2)CCN1S(=O)(=O)CC1CCN(C)CC1"
  MEASUREMENT_TARGET: "SMYD3 (Homo sapiens (Human), UniProt Q9H7B4)"
  pIC50: 9.00

**Q:** What value of pIC50 has been reported for the following compound? C[C@H]1CN(S(=O)(=O)CC2CCNCC2)CC[C@H]1NC(=O)c1cc(C2CC2)on1
**A:** 7.63

**Q:** What value of pIC50 has been reported for the following compound? CN(C)CCNCCCS(=O)(=O)N1[C@@H]2CC[C@H]1C[C@@H](NC(=O)c1cc(C3CC3)on1)C2
**A:** 7.96

**Q:** What value of pIC50 has been reported for the following compound? C[C@H]1C[C@@H](NC(=O)c2cc(C3CC3)on2)CCN1S(=O)(=O)CCCNCc1ccc(C(F)(F)F)cc1
**A:** 8.21

**Q:** What value of pIC50 has been reported for the following compound? CC[C@H]1CN(S(=O)(=O)N2CC[C@H](NC(=O)c3cc(C4CC4)on3)C[C@@H]2C)CCN1
**A:** 7.98

**Q:** What value of pIC50 has been reported for the following compound? O=C(N[C@H]1C[C@H]2CC[C@@H](C1)N2S(=O)(=O)CC1CCN(Cc2ccccc2)CC1)c1cc(C2CC2)on1
**A:** 8.92

----------
# MEASUREMENT_TARGET: UniProt Q9H7B4
# EXPERIMENT_DESCRIPTION: SMYD3 biochemical assay (SPA, 3H-SAM methylation of MEKK2 protein substrate)
# ASSAY_CONDITIONS: Table 2A; read-out: SMYD3 Biochem IC50
Parameter IC50: see the listing below.
Number in nM, nothing else.

- COMPOUND: "C[C@H]1C[C@@H](NC(=O)c2cc(C3CC3)on2)CCN1S(=O)(=O)CCCCN [compound 548]"
  IC50 [nM]: 2.4

**Q:** What value of IC50 has been reported for the following compound? O=C(N[C@H]1C[C@H]2CC[C@@H](C1)N2S(=O)(=O)CC1CCN(CCCO)CC1)c1cc(C2CC2)on1 [compound 534]
**A:** 1.1

**Q:** What value of IC50 has been reported for the following compound? O=C(N[C@H]1C[C@H]2CC[C@@H](C1)N2S(=O)(=O)CCCN1CCCC1)c1cc(C2CC2)on1 [compound 597]
**A:** 12.9

----------
# MEASUREMENT_TARGET: SMYD3 (Homo sapiens (Human), UniProt Q9H7B4)
# EXPERIMENT_DESCRIPTION: SMYD3 biochemical assay (SPA, 3H-SAM methylation of MEKK2 protein substrate)
# ASSAY_CONDITIONS: average of n = 1 to n = 50; read-out: SMYD3 Biochem IC50
Parameter IC50: see the listing below.
Number in µM, nothing else.

- COMPOUND: "C[C@@H]1C[C@H](NC(=O)c2cc(C3CC3)on2)CCN1C(=O)c1ccc(CN(C)C)cc1"
  IC50 [µM]: 0.129
- COMPOUND: "C[C@@H]1CN(S(=O)(=O)N2CCN(C)CC2)[C@H](C)C[C@@H]1NC(=O)c1cc(C2CC2)on1"
  IC50 [µM]: 0.124
- COMPOUND: "C[C@H]1CN(S(=O)(=O)NC2CCN(C)CC2)CC[C@H]1NC(=O)c1cc(C2CC2)on1"
  IC50 [µM]: 0.0969
- COMPOUND: "C[C@@H]1CN(S(=O)(=O)N2CC[C@H](NC(=O)c3cc(C4CC4)on3)C[C@@H]2C)[C@@H](C)CN1"
  IC50 [µM]: 0.0773
- COMPOUND: "CN(C)CCS(=O)(=O)N1[C@@H]2CC[C@H]1C[C@@H](NC(=O)c1cc(C3CC3)on1)C2"
  IC50 [µM]: 0.104

**Q:** Form field: IC50 recorded for O=C(N[C@H]1C[C@H]2CC[C@@H](C1)N2S(=O)(=O)CCN1CCC(N2CCCCC2)C1)c1cc(C2CC2)on1 (some centres unmarked) with SMYD3 (Homo sapiens (Human), UniProt Q9H7B4) (enter value)
**A:** 0.0851

**Q:** Form field: IC50 recorded for COCCN1CCC(CS(=O)(=O)N2CC[C@@H](NC(=O)c3cc(C4CC4)on3)[C@@H](C)C2)CC1 with SMYD3 (Homo sapiens (Human), UniProt Q9H7B4) (enter value)
**A:** 0.056

**Q:** Form field: IC50 recorded for O=C(N[C@H]1C[C@H]2CCC[C@@H](C1)N2S(=O)(=O)CC1CCNCC1)c1cc(C2CC2)on1 with SMYD3 (Homo sapiens (Human), UniProt Q9H7B4) (enter value)
**A:** 0.106

**Q:** Form field: IC50 recorded for CC1CN(S(=O)(=O)N2[C@@H]3CC[C@H]2C[C@@H](NC(=O)c2cc(C4CC4)on2)C3)CC(C)N1 (some centres unmarked) with SMYD3 (Homo sapiens (Human), UniProt Q9H7B4) (enter value)
**A:** 0.148

**Q:** Form field: IC50 recorded for O=C(N[C@H]1C[C@H]2CC[C@@H](C1)N2S(=O)(=O)N1CCNC(CO)C1)c1cc(C2CC2)on1 (some centres unmarked) with SMYD3 (Homo sapiens (Human), UniProt Q9H7B4) (enter value)
**A:** 0.0378

**Q:** Form field: IC50 recorded for C[C@H]1CN(S(=O)(=O)CC2CCN(Cc3ccccc3)CC2)CC[C@H]1NC(=O)c1cc(C2CC2)on1 with SMYD3 (Homo sapiens (Human), UniProt Q9H7B4) (enter value)
**A:** 0.0564

----------
# MEASUREMENT_TARGET: SMYD3 (Homo sapiens (Human))
# EXPERIMENT_DESCRIPTION: SMYD3 cell assay (Trimethyl-MEKK2 In-Cell Western in 293T/17 cells)
# Format: cell-based
# ASSAY_CONDITIONS: Table 2A; read-out: SMYD3 Cell IC50
Parameter pIC50: see the listing below.
The meaning of pIC50 here: minus log10 of the concentration in molar units.

- MOLECULE: "NCCNCCS(=O)(=O)N1[C@@H]2CC[C@H]1C[C@@H](NC(=O)c1cc(C3CC3)on1)C2"
  pIC50: 6.42
- MOLECULE: "CN1C2CC1CN(S(=O)(=O)N1[C@@H]3CC[C@H]1C[C@@H](NC(=O)c1cc(C4CC4)on1)C3)C2"
  pIC50: 6.82
- MOLECULE: "O=C(N[C@H]1C[C@H]2CC[C@@H](C1)N2S(=O)(=O)CC1CCN(CCCC(F)(F)F)CC1)c1cc(C2CC2)on1"
  pIC50: 7.64
- MOLECULE: "C[C@H]1C[C@@H](NC(=O)c2cc(C3CC3)on2)CCN1S(=O)(=O)CCCNCc1ccc2ccccc2c1"
  pIC50: 6.54

**Q:** What value of pIC50 has been reported for the following compound? O=C(N[C@H]1C[C@H]2CC[C@@H](C1)N2S(=O)(=O)NC1CC2(CNC2)C1)c1cc(C2CC2)on1
**A:** 6.17

**Q:** What value of pIC50 has been reported for the following compound? COCCN1CCC(CS(=O)(=O)N2[C@@H]3CC[C@H]2C[C@@H](NC(=O)c2cc(C4CC4)on2)C3)CC1
**A:** 7.25

**Q:** What value of pIC50 has been reported for the following compound? CN(CCN)CCS(=O)(=O)N1[C@@H]2CC[C@H]1C[C@@H](NC(=O)c1cc(C3CC3)on1)C2
**A:** 6.37

**Q:** What value of pIC50 has been reported for the following compound? O=C(N[C@H]1C[C@H]2CC[C@@H](C1)N2S(=O)(=O)CC1CCN(CCN2CCOCC2)CC1)c1cc(C2CC2)on1
**A:** 6.23

**Q:** What value of pIC50 has been reported for the following compound? O=C(N[C@H]1C[C@H]2CC[C@@H](C1)N2S(=O)(=O)N1CC2(CCNCC2)C1)c1cc(C2CC2)on1
**A:** 7.50

**Q:** What value of pIC50 has been reported for the following compound? O=C(N[C@H]1C[C@H]2CC[C@@H](C1)N2S(=O)(=O)CC1CCN(CCC(F)(F)F)CC1)c1cc(C2CC2)on1
**A:** 7.27

**Q:** What value of pIC50 has been reported for the following compound? O=C(N[C@H]1C[C@H]2CC[C@@H](C1)N2S(=O)(=O)N1CC2CC(C1)N2)c1cc(C2CC2)on1
**A:** 7.00

**Q:** What value of pIC50 has been reported for the following compound? C[C@H]1CN(S(=O)(=O)CC2CCN(CCCC(F)(F)F)CC2)CC[C@H]1NC(=O)c1cc(C2CC2)on1
**A:** 6.67

**Q:** What value of pIC50 has been reported for the following compound? CN(C)CCN(C)CCS(=O)(=O)N1[C@@H]2CC[C@H]1C[C@@H](NC(=O)c1cc(C3CC3)on1)C2
**A:** 6.62
